Could you please report measured MIC for the items listed next?
# System: Mycobacterium kansasii 235/80
# Protocol: In vitro antimycobacterial MIC, M. kansasii 235/80
# Type: cell-based
# Condition Label: 235/80, 504 h, 21 d incubation, read-out: MIC M. kansasii 235/80 21 d
Give bare numbers, in µM.

Below, each entry is followed by its recorded MIC result.
[
  {
    "Molecule": "O=[N+]([O-])c1ccc(O)c(C=Nc2ccc(S(=O)(=O)Nc3ncccn3)cc2)c1",
    "Measured Quantity": "MIC",
    "Observed": 500
  },
  {
    "Molecule": "O=[N+]([O-])c1ccc(C=Nc2ccc(S(=O)(=O)Nc3ncccn3)cc2)o1",
    "Measured Quantity": "MIC",
    "Observed": 250
  }
]

Look at each molecule and report its MIC.
1. CC(C)(C)c1ccc(O)c(C=Nc2ccc(S(=O)(=O)Nc3ncccn3)cc2)c1
2. O=S(=O)(Nc1ncccn1)c1ccc(N=Cc2cc(Cl)cc(Cl)c2O)cc1
3. Nc1ccc(S(=O)(=O)Nc2ncccn2)cc1 [SDZ 1, sulfadiazine, reference compound]

1: 62.5; 2: 500; 3: 32

Look at each molecule and report its MIC.
1. O=S(=O)(Nc1ncccn1)c1ccc(N=Cc2c(O)cccc2Cl)cc1
2. O=S(=O)(Nc1ncccn1)c1ccc(N=Cc2cc(Br)ccc2O)cc1
3. Cc1ccc(O)c(C=Nc2ccc(S(=O)(=O)Nc3ncccn3)cc2)c1

1. 250
2. 62.5
3. 250

Look at each molecule and report its MIC.
1. O=S(=O)(Nc1ncccn1)c1ccc(N=Cc2cccc(Cl)c2O)cc1
2. COc1ccc(O)c(C=Nc2ccc(S(=O)(=O)Nc3ncccn3)cc2)c1
3. O=S(=O)(Nc1ncccn1)c1ccc(N=Cc2cc(Cl)cc(Br)c2O)cc1
4. O=S(=O)(Nc1ncccn1)c1ccc(N=Cc2ccccc2O)cc1
5. O=S(=O)(Nc1ncccn1)c1ccc(N=Cc2cc(O)ccc2O)cc1
6. O=S(=O)(Nc1ncccn1)c1ccc(N=Cc2cc(I)ccc2O)cc1

62.5
62.5
250
32
125
125

Look at each molecule and report its MIC.
1. O=S(=O)(Nc1ncccn1)c1ccc(N=Cc2cc(F)ccc2O)cc1
2. O=S(=O)(Nc1ncccn1)c1ccc(N=Cc2cc(Cl)cc(I)c2O)cc1
3. O=S(=O)(Nc1ncccn1)c1ccc(N=Cc2cc(I)cc(I)c2O)cc1

1. 250
2. 250
3. 250

----------
# Tested on: Trichophyton interdigitale 445
# Protocol: Antifungal microdilution broth MIC, T. interdigitale
# Format: cell-based
# Condition Label: SI = IC50 (HepG2)/MIC, Trichophyton interdigitale
Measured Quantity: SI for TI

Below, each entry is followed by its recorded SI for TI result.
[
  {
    "Compound": "Cc1ccc(O)c(C=Nc2ccc(S(=O)(=O)Nc3ncccn3)cc2)c1",
    "Test Target": "Trichophyton interdigitale 445",
    "SI for TI": "inactive"
  },
  {
    "Compound": "O=S(=O)(Nc1ncccn1)c1ccc(N=Cc2cc(Cl)ccc2O)cc1",
    "Test Target": "Trichophyton interdigitale 445",
    "SI for TI": "inactive"
  },
  {
    "Compound": "O=S(=O)(Nc1ncccn1)c1ccc(N=Cc2c(O)cccc2Cl)cc1",
    "Test Target": "Trichophyton interdigitale 445",
    "SI for TI": "inactive"
  },
  {
    "Compound": "O=S(=O)(Nc1ncccn1)c1ccc(N=Cc2cc(F)ccc2O)cc1",
    "Test Target": "Trichophyton interdigitale 445",
    "SI for TI": "inactive"
  }
]

Okay, next one:
Can you share its SI for TI? I mean this compound: Nc1ccc(S(=O)(=O)Nc2ncccn2)cc1 [SDZ 1, sulfadiazine, reference compound] inactive

----------
# System: ESBL-positive Klebsiella pneumoniae J 14368/08
# Condition Label: 48 h
Measured Quantity: MIC KP-E 48 h

[
  {
    "Compound": "O=S(=O)(Nc1ncccn1)c1ccc(N=Cc2cc(O)ccc2O)cc1 [Compound 2i]",
    "MIC KP-E 48 h": ">500 µM"
  },
  {
    "Compound": "O=S(=O)(Nc1ncccn1)c1ccc(N=Cc2c(O)cccc2Cl)cc1 [Compound 2k]",
    "MIC KP-E 48 h": ">250 µM"
  },
  {
    "Compound": "O=S(=O)(Nc1ncccn1)c1ccc(N=Cc2cccc(Cl)c2O)cc1 [Compound 2l]",
    "MIC KP-E 48 h": ">500 µM"
  },
  {
    "Compound": "O=S(=O)(Nc1ncccn1)c1ccc(N=Cc2cc(Cl)cc(I)c2O)cc1 [Compound 2o]",
    "MIC KP-E 48 h": "500 µM"
  },
  {
    "Compound": "O=S(=O)(Nc1ncccn1)c1ccc(N=Cc2cc(Cl)cc(Br)c2O)cc1 [Compound 2n]",
    "MIC KP-E 48 h": "500 µM"
  }
]

Look at each compound and report its MIC KP-E 48 h.
1. Nc1ccc(S(=O)(=O)Nc2ncccn2)cc1 [SDZ 1, sulfadiazine, reference compound]
2. O=S(=O)(Nc1ncccn1)c1ccc(N=Cc2ccccc2O)cc1 [Compound 2a]
3. COc1ccc(O)c(C=Nc2ccc(S(=O)(=O)Nc3ncccn3)cc2)c1 [Compound 2h]
4. O=[N+]([O-])c1ccc(C=Nc2ccc(S(=O)(=O)Nc3ncccn3)cc2)o1 [Compound 2q]

[">500 µM", ">500 µM", ">500 µM", "500 µM"]

----------
# Test system: Klebsiella pneumoniae D 11750/08
# Condition Label: 48 h
Measured Quantity: MIC KP 48 h

[
  {
    "Molecule": "COc1ccc(O)c(C=Nc2ccc(S(=O)(=O)Nc3ncccn3)cc2)c1 [Compound 2h]",
    "Test Target": "Klebsiella pneumoniae D 11750/08",
    "MIC KP 48 h": ">500 µM"
  },
  {
    "Molecule": "O=[N+]([O-])c1ccc(C=Nc2ccc(S(=O)(=O)Nc3ncccn3)cc2)o1 [Compound 2q]",
    "Test Target": "Klebsiella pneumoniae D 11750/08",
    "MIC KP 48 h": "500 µM"
  }
]

Okay, next one:
Can you share its MIC KP 48 h? I mean this molecule: Nc1ccc(S(=O)(=O)Nc2ncccn2)cc1 [SDZ 1, sulfadiazine, reference compound] >500 µM

----------
# Test system: Aspergillus fumigatus 231
# Protocol: Antifungal microdilution broth MIC, A. fumigatus
# Assay type: cell-based
# Condition Label: Aspergillus fumigatus, 231; 48 h incubation; read-out: MIC AF 48 h
Could you please report measured MIC for the items listed next?

Below, each entry is followed by its recorded MIC result.
[
  {
    "Molecule": "Cc1ccc(O)c(C=Nc2ccc(S(=O)(=O)Nc3ncccn3)cc2)c1",
    "MIC": "> 500 µM"
  },
  {
    "Molecule": "OC(Cn1cncn1)(Cn1cncn1)c1ccc(F)cc1F [FLU, fluconazole, reference compound]",
    "MIC": "> 500 µM"
  }
]

Look at each molecule and report its MIC.
1. O=S(=O)(Nc1ncccn1)c1ccc(N=Cc2c(O)cccc2Cl)cc1
2. O=S(=O)(Nc1ncccn1)c1ccc(N=Cc2cc(F)ccc2O)cc1
3. O=S(=O)(Nc1ncccn1)c1ccc(N=Cc2ccccc2O)cc1

1: > 250 µM; 2: > 250 µM; 3: > 500 µM
